Test system: SN12C renal
Test: NCI-60 one-dose screen, 48 h (100 = growth as untreated, 0 = no growth, -100 = all killed)
Conditions: 10 µM unless noted
About 83,000 compounds went through this panel and 20% of them were active in at least one assay; those are over-represented in the sample as a whole. Active and inactive are the calls of the source. How the source made its calls: active means growth percent below 10; inactive means the rest.
This listing pairs compounds with measured growth.

CC(=NCc1ccccc1)c1ccc(O)cc1O : 91.8% (inactive)
CCCCCCCCCCCCC[C@H](O)C[C@H](O)[C@H](C)N : 105% [1.25 µM] (inactive)
C/C(=C(\c1ccc(OCCN2CCOCC2)cc1)c1ccc(OC(=O)C2CCCCC2)cc1)c1ccc(Cl)cc1 : 94.7% (inactive)
CC(=O)OC[C@]12CCC(C)(C)C=C1[C@H]1CC[C@@H]3[C@@]4(C)CCCNC(C)(C)[C@@H]4CC[C@@]3(C)[C@]1(C)CC2 : 68.8% (inactive)

[ask] # lookup: SN12C renal growth, key = CCCN1C(=O)/C(=c2\sc3n(c2=O)NC2C(N=3)N(CC)C(=O)N2CC)c2ccccc21 (stereo not drawn)
[reply] 38.1% (inactive)

[ask] With SN12C renal as the test system, provide measured growth for this compound: `COc1nc2ccc(C)cc2cc1/C=[N+](\[O-])c1ccccc1`
[reply] 90.1% (inactive)

[ask] State growth on SN12C renal. Entry: `CCOC(=O)c1nc2c3ccccc3cnn2c1C(=O)c1ccc(OC)cc1`
[reply] 98.5% (inactive)

[ask] Under SN12C renal: report growth of CCOC(=O)C1=C(C)NC(=O)NC1c1c(Cl)n(-c2ccccc2)c2ccccc12 (stereo not drawn) .
[reply] 92.7% (inactive)

[ask] State recorded growth with SN12C renal, entry `CCCCCCCC/C=C\CCCCCCCCOc1ccccc1CC(=O)NCC[N+]1(C)CCOCC1` , no comment.
[reply] 60.5% (inactive)

[ask] Give SN12C renal growth for the following compound: `COc1ccc(C/C(C)=C(/c2ccc(OCCN3CCCC3)cc2)c2ccc(OC(=O)NCc3ccccc3)cc2)cc1`
[reply] 91.9% (inactive)

[ask] Quote growth with test system SN12C renal for `COc1cc2nc3cc([N+](=O)[O-])ccc3c(NCCNCC(C)(C)O)c2cc1OC`
[reply] -17.1% (active)

[ask] System SN12C renal. Read-out growth. Item `COc1ccc2c(c1)c(-c1nc(-c3c[nH]c4c(Cl)nccc34)cs1)cn2C` . Report value.
[reply] 95.9% (inactive)

[ask] Name the value of growth reported for CC(=O)N1N=C(c2ccc(F)cc2)CC1c1sc(N(C)Cc2ccccc2)nc1Cl (stereo not drawn) when tested on SN12C renal.
[reply] 106% (inactive)

Data provenance is PubChem BioAssay (NCI).
